- measurement target: EGFR (T790M/L858R), H1975 cell (Homo sapiens, UniProt P00533, L858R/T790M)
- Construct: endogenous in cells; host or cells: H1975
- Sequence (P00533 25-1210 T790M/L858R): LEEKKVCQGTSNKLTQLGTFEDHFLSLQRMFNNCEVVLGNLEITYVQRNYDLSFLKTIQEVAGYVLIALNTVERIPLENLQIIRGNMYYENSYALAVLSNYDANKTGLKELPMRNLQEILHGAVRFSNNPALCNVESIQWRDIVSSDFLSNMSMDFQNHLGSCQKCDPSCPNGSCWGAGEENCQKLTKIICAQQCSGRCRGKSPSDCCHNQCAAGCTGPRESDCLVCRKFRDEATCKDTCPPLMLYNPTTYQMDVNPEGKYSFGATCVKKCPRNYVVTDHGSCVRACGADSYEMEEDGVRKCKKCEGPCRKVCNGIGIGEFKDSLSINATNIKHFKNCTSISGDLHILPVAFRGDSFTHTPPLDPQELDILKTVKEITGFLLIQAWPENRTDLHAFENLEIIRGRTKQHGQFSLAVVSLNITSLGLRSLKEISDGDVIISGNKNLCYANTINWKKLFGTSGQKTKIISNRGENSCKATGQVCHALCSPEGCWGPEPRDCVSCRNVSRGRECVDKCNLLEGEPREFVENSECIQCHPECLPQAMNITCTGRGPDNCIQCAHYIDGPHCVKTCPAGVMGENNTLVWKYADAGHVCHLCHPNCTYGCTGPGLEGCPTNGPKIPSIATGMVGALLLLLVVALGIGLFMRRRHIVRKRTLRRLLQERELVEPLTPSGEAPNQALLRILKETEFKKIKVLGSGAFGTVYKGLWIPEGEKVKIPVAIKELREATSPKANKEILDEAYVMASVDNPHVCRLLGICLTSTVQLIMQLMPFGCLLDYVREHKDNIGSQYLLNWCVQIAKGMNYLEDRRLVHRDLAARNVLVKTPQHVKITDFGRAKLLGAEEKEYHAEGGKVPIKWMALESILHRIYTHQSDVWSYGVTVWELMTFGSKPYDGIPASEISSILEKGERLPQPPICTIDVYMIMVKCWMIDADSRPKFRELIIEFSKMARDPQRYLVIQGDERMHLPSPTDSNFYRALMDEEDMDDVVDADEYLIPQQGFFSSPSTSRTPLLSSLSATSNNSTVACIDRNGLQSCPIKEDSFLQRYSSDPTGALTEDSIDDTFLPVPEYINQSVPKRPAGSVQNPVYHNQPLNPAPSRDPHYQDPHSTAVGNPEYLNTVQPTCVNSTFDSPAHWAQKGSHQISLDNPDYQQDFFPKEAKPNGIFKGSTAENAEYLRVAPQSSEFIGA
- experiment summary: ELISA assay of EGFR phosphorylation in H1975 cells
- Format: cell-based
- reported conditions: ratio of IC50 A431 cell (WT) to IC50 H1975 cell (T790M/L858R)
measurement kind: Selectivity (WT/T790M)

Here is how some compounds turned out for Selectivity (WT/T790M).
C/C=C/C(=O)Nc1cccc(C(F)(F)c2nc(Nc3ccc(N4CCN(CC)CC4)cc3)ncc2F)c1	7.2
C=CC(=O)Nc1cccc(C(F)(F)c2nc(Nc3ccc(N4CCN(C)CC4)cc3)nc3[nH]ccc23)c1 [Compound 28a]	107

[I] C=CC(=O)Nc1cccc(C(F)(F)c2nc(Nc3ccc(N4CCN(C)CC4)cc3)ncc2OC)c1
[II] C=CC(=O)Nc1cccc(C(F)(F)c2nc(Nc3ccc(N4CCN(C)CC4)nc3)nc3[nH]ccc23)c1 [Compound 28b]
[III] C=CC(=O)Nc1cccc(C(F)(F)c2nc(Nc3ccc(N4CCN(C)CC4)cc3)ncc2F)c1
rank_up(items): orders items by reported Selectivity (WT/T790M) in ascending numerical order. Note for the reader: the ranking is given by listing the labels in the order requested.
I, III, II

* * *

- Tested on: EGFR in A431 cells
- experiment summary: A431 EGF stimulation assay (impedance, xCelligence RTCA)
- Assay type: cell-based
- reported conditions: Homo sapiens, A-431
measurement kind: IC50 (µM)

C=CC(=O)Nc1cccc(Oc2nc(Nc3ccc(N4CCN(C)CC4)cc3OC)ncc2Cl)c1 [WZ4002, reference compound]	0.817

[a] C=CC(=O)Nc1cccc(C(F)(F)c2nc(Nc3ccc(N4CCN(C)CC4)cc3)ncc2F)c1 [Compound 19]
[b] C=CC(=O)Nc1cccc(C(F)(F)c2nc(Nc3ccc(N4CCN(C)CC4)cc3)nc3[nH]cnc23)c1 [Compound 13a]
[c] C=CC(=O)Nc1cccc(C(F)(F)c2nc(Nc3ccc(N4CCN(C)CC4)cc3OC)nc3[nH]cnc23)c1 [Compound 13b]
Would you mind ranking these molecules by ascending IC50? Sort the labels as requested; that list is your answer.
a, b, c

* * *

- measurement target: EGFR (WT), A431 cell (Homo sapiens, UniProt P00533)
- Construct: endogenous in cells; host or cells: A431
- Sequence (P00533 25-1210): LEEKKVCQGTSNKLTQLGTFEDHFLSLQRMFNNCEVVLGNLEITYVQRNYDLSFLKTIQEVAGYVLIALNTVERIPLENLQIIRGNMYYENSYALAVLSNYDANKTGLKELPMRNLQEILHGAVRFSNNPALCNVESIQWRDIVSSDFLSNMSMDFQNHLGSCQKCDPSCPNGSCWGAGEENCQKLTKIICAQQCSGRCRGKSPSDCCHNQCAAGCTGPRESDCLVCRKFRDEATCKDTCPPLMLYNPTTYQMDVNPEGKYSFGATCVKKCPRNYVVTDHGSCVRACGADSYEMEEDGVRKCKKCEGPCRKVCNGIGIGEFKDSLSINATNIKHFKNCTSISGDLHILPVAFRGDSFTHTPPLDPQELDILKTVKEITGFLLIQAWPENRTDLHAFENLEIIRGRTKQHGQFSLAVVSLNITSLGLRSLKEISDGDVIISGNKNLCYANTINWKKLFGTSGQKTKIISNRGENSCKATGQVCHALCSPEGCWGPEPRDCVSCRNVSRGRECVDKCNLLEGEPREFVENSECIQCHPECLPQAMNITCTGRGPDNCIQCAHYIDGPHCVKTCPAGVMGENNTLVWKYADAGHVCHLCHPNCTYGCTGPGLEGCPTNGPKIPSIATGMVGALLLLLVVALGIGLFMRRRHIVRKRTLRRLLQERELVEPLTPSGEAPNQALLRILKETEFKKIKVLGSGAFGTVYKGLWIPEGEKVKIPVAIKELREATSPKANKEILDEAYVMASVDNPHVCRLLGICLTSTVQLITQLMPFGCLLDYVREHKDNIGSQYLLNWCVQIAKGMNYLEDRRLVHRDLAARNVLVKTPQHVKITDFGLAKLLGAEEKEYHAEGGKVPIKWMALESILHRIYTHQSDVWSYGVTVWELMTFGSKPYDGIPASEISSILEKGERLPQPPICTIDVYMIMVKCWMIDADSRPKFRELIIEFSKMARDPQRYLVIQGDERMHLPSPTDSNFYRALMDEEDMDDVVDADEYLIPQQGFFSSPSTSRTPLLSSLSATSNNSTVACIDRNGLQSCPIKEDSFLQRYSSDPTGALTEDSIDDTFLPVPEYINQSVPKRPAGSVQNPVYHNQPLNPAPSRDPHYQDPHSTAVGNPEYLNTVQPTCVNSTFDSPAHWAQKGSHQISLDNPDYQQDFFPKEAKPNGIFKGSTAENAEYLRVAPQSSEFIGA
- experiment summary: ELISA assay of EGFR phosphorylation in A431 cells
- Format: cell-based
- reported conditions: EGFR pY1068 sandwich ELISA, 2 hours compound, 30 ng/mL EGF last 15 minutes
measurement kind: IC50 (µM)

Worked cases, answers included:
C=CC(=O)Nc1cccc(C(F)(F)c2nc(Nc3ccc(N4CCN(C)CC4)cc3OC)ncc2OC)c1	28.8
C=CC(=O)Nc1cccc(C(F)(F)c2nc(Nc3ccc(N4CCN(CC)CC4)cc3)ncc2F)c1	0.71
C=CC(=O)Nc1cccc(C(F)(F)c2nc(Nc3ccc(N4CCN(C)CC4)nc3)nc3[nH]ccc23)c1 [Compound 28b]	12
C=CC(=O)Nc1cccc(C(F)(F)c2nc(Nc3ccc(N4CCN(C)CC4)cc3)nc3c2ccn3CO)c1 [Compound 27a]	23.4
C=CC(=O)Nc1cccc(C(F)(F)c2nc(Nc3ccc(N4CCN(C)CC4)c(F)c3)ncc2F)c1	2.17

[P] C=CC(=O)Nc1cccc(C(F)(F)c2nc(Nc3ccc(N4CCN(C)CC4)nc3)ncc2F)c1
[Q] C=CC(=O)Nc1cccc(C(F)(F)c2nc(Nc3ccc(N4CCN(C)CC4)cc3)ncc2Cl)c1
So which one has the bigger IC50 here, P or Q ? Answer format: the label of the selected item.
P
(P: 7.17 µM, Q: 3.81 µM)

[1] C=CC(=O)Nc1cccc(C(F)(F)c2nc(Nc3ccc(N4CCN(C)CC4)c(F)c3)ncc2OC)c1
[2] C=CC(=O)Nc1cccc(C(F)(F)c2nc(Nc3ccc(N4CCN(C)CC4)cc3)nc3[nH]ccc23)c1 [Compound 28a]
[3] C/C=C/C(=O)Nc1cccc(C(F)(F)c2nc(Nc3ccc(N4CCN(C)CC4)cc3)ncc2F)c1
Rank items: key IC50, increasing. A complete answer lists every label in the requested sequence.
2, 1, 3

[A] C=CC(=O)Nc1cccc(C(F)(F)c2nc(Nc3ccc(N4CCN(C)CC4)cc3)ncc2OC)c1
[B] C/C=C/C(=O)Nc1cccc(C(F)(F)c2nc(Nc3ccc(N4CCN(CC)CC4)cc3)ncc2F)c1
[C] C=CC(=O)Nc1cccc(C(F)(F)c2nc(Nc3ccc(N4CCN(C)CC4)c(F)c3)nc3[nH]ccc23)c1 [Compound 28c]
[D] C=CC(=O)Nc1cccc(C(F)(F)c2nc(Nc3ccc(N4CCN(C)CC4)cc3)ncc2F)c1
Hey, can you sort those compounds up there by IC50, smallest first? Thanks in advance for listing the labels in the requested order.
D, A, C, B

* * *

- System: EGFR in H1975 cells
- experiment summary: H1975 EGF stimulation assay (impedance, xCelligence RTCA)
- Assay type: cell-based
- reported conditions: Homo sapiens, NCI-H1975, 40 min pretreatment, EGF 30 ng/mL
measurement kind: IC50 (µM)

C=CC(=O)Nc1cccc(C(F)(F)c2nc(Nc3ccc(N4CCN(C)CC4)cc3)ncc2F)c1	1.1

[a] C=CC(=O)Nc1cccc(C(F)(F)c2nc(Nc3ccc(N4CCN(C)CC4)cc3)nc3[nH]cnc23)c1 [Compound 13a]
[b] C=CC(=O)Nc1cccc(Oc2nc(Nc3ccc(N4CCN(C)CC4)cc3OC)ncc2Cl)c1 [WZ4002, reference compound]
Please tell me which of the two, a or b , has the higher reported IC50 value. Answer with the label corresponding to your selection.
a

* * *

- measurement target: EGFR (T790M/L858R), H1975 cell (Homo sapiens, UniProt P00533, L858R/T790M)
- Construct: endogenous in cells; host or cells: H1975
- experiment summary: ELISA assay of EGFR phosphorylation in H1975 cells
- Assay type: cell-based
- reported conditions: EGFR pY1068 sandwich ELISA, 2 hours compound in serum-free medium
measurement kind: IC50 (µM)

A selection of reference data follows.
C=CC(=O)Nc1cccc(C(F)(F)c2nc(Nc3ccc(N4CCN(C)CC4)cc3)ncc2OC)c1	0.062
C=CC(=O)Nc1cccc(C(F)(F)c2nc(Nc3ccc(N4CCN(C)CC4)nc3)nc3[nH]ccc23)c1 [Compound 28b]	0.026
C=CC(=O)Nc1cccc(C(F)(F)c2nc(Nc3ccc(N4CCN(C)CC4)cc3OC)ncc2OC)c1	0.03
C=CC(=O)Nc1cccc(C(F)(F)c2nc(Nc3ccc(N4CCN(CC)CC4)cc3)ncc2F)c1	0.041
C/C=C/C(=O)Nc1cccc(C(F)(F)c2nc(Nc3ccc(N4CCN(CC)CC4)cc3)ncc2F)c1	1.63

[a] C=CC(=O)Nc1cccc(C(F)(F)c2nc(Nc3ccc(N4CCN(C)CC4)cc3)ncc2Cl)c1
[b] C=CC(=O)Nc1cccc(C(F)(F)c2nc(Nc3ccc(N4CCN(C)CC4)c(F)c3)nc3[nH]ccc23)c1 [Compound 28c]
[c] C=CC(=O)Nc1cccc(C(F)(F)c2nc(Nc3ccc(N4CCN(C)CC4)cc3)nc3[nH]ccc23)c1 [Compound 28a]
[d] C=CC(=O)Nc1cccc(C(F)(F)c2nc(Nc3ccc(N4CCN(C)CC4)c(F)c3)ncc2OC)c1
Rank the 4 compounds: largest IC50 first, smallest last. Order the labels as requested and give them as your answer.
a, b, d, c
(a: 0.341 µM, b: 0.08 µM, d: 0.038 µM, c: 0.026 µM)

[a] C/C=C/C(=O)Nc1cccc(C(F)(F)c2nc(Nc3ccc(N4CCN(C)CC4)cc3)ncc2F)c1
[b] C=CC(=O)Nc1cccc(C(F)(F)c2nc(Nc3ccc(N4CCN(C)CC4)cc3)ncc2F)c1
[c] C=CC(=O)Nc1cccc(C(F)(F)c2nc(Nc3ccc(N4CCN(C)CC4)c(F)c3)ncc2F)c1
[d] C=CC(=O)Nc1cccc(C(F)(F)c2nc(Nc3ccc(N4CCN(C)CC4)cc3)nc3c2ccn3CO)c1 [Compound 27a]
[e] C=CC(=O)Nc1cccc(C(F)(F)c2nc(Nc3ccc(N4CCN(C)CC4)cc3OC)nc3[nH]ccc23)c1 [Compound 28d]
Order the records by IC50, with each subsequent value no larger than the one before. Please, when replying, give the labels in the order that was requested.
a, e, c, d, b

[I] C=CC(=O)Nc1cccc(C(F)(F)c2nc(Nc3ccc(N4CCN(C)CC4)cc3OC)ncc2F)c1
[II] C=CC(=O)Nc1cccc(C(F)(F)c2nc(Nc3ccc(N4CCN(C)CC4)nc3)ncc2OC)c1
// max by IC50 over [ I , II ] Your choice should be expressed through its label.
I
(I: 1.3 µM, II: 0.03 µM)

* * *

- measurement target: EGFR (WT), A431 cell (Homo sapiens, UniProt P00533)
- Construct: endogenous in cells; host or cells: A431
- experiment summary: ELISA assay of EGFR phosphorylation in A431 cells
- Format: cell-based
- reported conditions: EGFR pY1068 sandwich ELISA, 2 hours compound, 30 ng/mL EGF last 15 minutes
measurement kind: IC50 (µM)

C=CC(=O)Nc1cccc(C(F)(F)c2nc(Nc3ccc(N4CCN(C)CC4)cc3OC)nc3[nH]cnc23)c1 [Compound 13b]	10.8
C=CC(=O)Nc1cccc(C(F)(F)c2nc(Nc3ccc(N4CCN(C)CC4)cc3)nc3[nH]cnc23)c1 [Compound 13a]	13.7
C=CC(=O)Nc1cccc(C(F)(F)c2nc(Nc3ccc(N4CCN(C)CC4)cc3)ncc2C)c1	11.1

Data provenance is patent US11612602B2.
